- target_system: Endothelin receptor type B (Homo sapiens, UniProt P24530)
- Sequence (P24530 whole entry): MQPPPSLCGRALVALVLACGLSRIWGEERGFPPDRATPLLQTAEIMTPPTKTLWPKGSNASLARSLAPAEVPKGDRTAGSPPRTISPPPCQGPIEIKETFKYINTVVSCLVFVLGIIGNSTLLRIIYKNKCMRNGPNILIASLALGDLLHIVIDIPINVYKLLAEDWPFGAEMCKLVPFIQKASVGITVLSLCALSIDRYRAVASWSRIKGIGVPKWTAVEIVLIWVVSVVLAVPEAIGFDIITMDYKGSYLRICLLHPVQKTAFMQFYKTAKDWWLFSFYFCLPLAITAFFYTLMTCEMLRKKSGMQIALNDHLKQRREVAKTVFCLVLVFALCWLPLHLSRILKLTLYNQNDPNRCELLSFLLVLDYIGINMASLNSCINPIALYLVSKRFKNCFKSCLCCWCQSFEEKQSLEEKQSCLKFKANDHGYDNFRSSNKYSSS
- assay_notes: Antagonist activity towards human recombinant Endothelin B receptor expressed in chinese hamster ovary (CHO) cells determined using [125I]ET1 as radioligand
pIC50: −log10 of the molar value.
Quick rule: pIC50 of at least 7 means class 1, below that means class 0.

[[record]]
compound = "COCCOCN1C(=O)CN[C@](c2ccccc2)([C@H](Oc2nc(C)cc(C)n2)C(=O)O)c2ccccc21 (racemic)"
target_system = "Endothelin receptor type B (Homo sapiens, UniProt P24530)"
class_assignment = "class 1"


Enquiry: Is reported pIC50 greater than or equal to 7 here: Cc1cc(C)nc(O[C@H](C(=O)O)[C@@]2(c3ccccc3)NCC(=O)N(Cc3c(F)cccc3Cl)c3ccccc32)n1 (racemic)
Return: class 1

Enquiry: API: above_or_equal(metric=pIC50, cutoff=7) for item COc1ccc(CN2C(=O)CN[C@](c3cccc(C(F)(F)F)c3)([C@H](Oc3nc(C)cc(C)n3)C(=O)O)c3ccccc32)cc1 (racemic)
Return: class 0

Enquiry: Please tell me: is the compound CCCCc1cccc([C@]2([C@H](Oc3nc(C)cc(C)n3)C(=O)O)NCC(=O)N(Cc3c(F)cc(F)cc3F)c3ccccc32)c1 (racemic) at or over 7 in terms of pIC50?
Return: class 1
